Assay: Acute toxicity in the mouse, DL50 i.v. (Behrens-Karber)
Settings: in vivo, iv, souris, survivors checked 15 days after administration, read-out: DL 50 i.v.
Excerpt: D'autres études pharmacologiques ont été entreprises, en particulier pour apprécier la toxicite aigue chez la souris. Les divers produits étudiés sont administrés a doses croissantes en progression arithmetique a des lots de 5 souris femelles SWISS, EOPS, NMRI/Han pesant 23 a 24 g. Les produits sont solubilises dans I'eau distillée. Les DL 50 sont calculées par la méthode de BEHRENS (B.) et KARBER (C.). […]

[
  {
    "compound": "O=C(O)C(Cc1c[nH]c2ccc(O)cc12)NCC1(O)OCC(O)C(O)C1O (stereo not shown) [DF-5HTP, N-1-desoxyfructo-5-hydroxytryptophane]",
    "LD50 at 360 h": "> 5000 mg/kg"
  }
]

Sourced from patent EP0151577B1
